test: Example 18 Part 2: multiple dose PK (20 mg QID) of 3,4-DAP and 3-N-acetyl metabolite in slow and fast acetylators; assay type: in vivo, human; settings: both sexes, human, plasma, oral, 20 mg, Day 3, fast acetylators, Dose 4 interval, 20 mg QID, arith. mean; read-out: Cmax
measured_attribute: Cmax (ng/mL)
One number for each entry, in ng/mL.

IN: Query: Cmax; subject: CC(=O)Nc1cnccc1N [3-N-acetyl amifampridine, N-(4-aminopyridin-3-yl)acetamide]
OUT: 509

* * *

experiment: Food-effect crossover study, plasma and urine PK after single 20 mg amifampridine phosphate in healthy subjects (Examples 10, 12); format: in vivo, human; details: human, plasma, oral, 20 mg, fed; read-out: Tmax, individual range
measured_attribute: Tmax

IN: Suppose we examine the molecule CC(=O)Nc1cnccc1N [3-N-acetyl amifampridine, N-(4-aminopyridin-3-yl)acetamide] ; what Tmax value has been reported?
OUT: 0.75 to 4 h

Origin of the recorded values: patent US11274332B2
